Each entry below carries its recorded IC50, inhibition of IL-8 secretion, HT-29 + EL4-NC-LIGHT cells.
# STUDY_SYSTEM: LIGHT without residues 81-84, stably expressed on EL4 cells (EL4-NC-LIGHT)
# ASSAY_NOTES: cell-based or functional assay
Give just the numeric value; nM need not be written.

Observe how each entry below is paired with its result.
3A07 chimeric IgG4 mAb (antibody, V domains shown, Chimeric human IgG4 (S-to-P, L-to-E) with human CL, as m1; also called Parental 3A07) VH: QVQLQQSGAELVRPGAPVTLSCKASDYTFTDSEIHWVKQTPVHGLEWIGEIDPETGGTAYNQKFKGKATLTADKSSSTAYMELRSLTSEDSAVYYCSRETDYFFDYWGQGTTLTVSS VL: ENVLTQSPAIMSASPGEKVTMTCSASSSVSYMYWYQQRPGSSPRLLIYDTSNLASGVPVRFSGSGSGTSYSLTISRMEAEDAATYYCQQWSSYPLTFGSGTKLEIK :: 2
3C10 chimeric IgG4 mAb (antibody, V domains shown, Chimeric human IgG4 (S-to-P, L-to-E) with human CL, as m1; also called Parental 3C10) VH: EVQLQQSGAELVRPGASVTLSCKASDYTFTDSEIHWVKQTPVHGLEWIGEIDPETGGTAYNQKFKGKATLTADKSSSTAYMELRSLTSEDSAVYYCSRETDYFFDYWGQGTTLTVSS VL: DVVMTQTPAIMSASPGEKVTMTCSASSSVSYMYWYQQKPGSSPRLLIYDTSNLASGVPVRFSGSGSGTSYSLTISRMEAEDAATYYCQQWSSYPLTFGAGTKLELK :: 1.9

Kindly review the next binder as well.
Input: Item 2E08 chimeric IgG4 mAb (antibody, V domains shown, Chimeric human IgG4 (S-to-P, L-to-E) with human CL, as m1; also called Parental 2E08) VH: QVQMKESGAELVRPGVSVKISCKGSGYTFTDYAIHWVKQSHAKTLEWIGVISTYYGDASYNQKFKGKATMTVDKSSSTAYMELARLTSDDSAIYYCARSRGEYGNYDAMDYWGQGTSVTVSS VL: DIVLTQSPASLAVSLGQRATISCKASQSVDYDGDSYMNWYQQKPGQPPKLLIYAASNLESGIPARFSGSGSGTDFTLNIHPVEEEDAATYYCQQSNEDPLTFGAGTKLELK has what recorded IC50, inhibition of IL-8 secretion, HT-29 + EL4-NC-LIGHT cells?
Output: 1.8

Source: patent US20210284747A1
